Where these numbers come from: PubChem BioAssay (NCI)

Tested on: IGROV1 ovarian
Assay: NCI tumour cell line growth inhibition, 48 h
Reported Endpoint: TGI

Check out these entries, answers already filled in.
Compound	TGI
CC1=NN(c2ccccc2)C(=O)C1N=Nc1ccc(Br)c(C)c1 (stereo not given)	> 100 µM
O=C1c2cccc3cc([N+](=O)[O-])cc(c23)C(=O)N1O	> 100 µM
O=C(/C=C/c1cccc(B(O)O)c1)c1cccc(B(O)O)c1	6.65 µM
CN(CC#N)C(=O)Cc1ccc([N+](=O)[O-])cc1	> 10 µM
CON	> 100 µM
O=C(CCO)OCCCCCC/C=C\CCCCCC/C=C\CCCCCCCCOC(=O)CCO	31.2 µM

Q: For the compound `CC(C)(C)OC(=O)N/N=C(/N)c1ccccc1` , give its measured TGI value.
A: > 100 µM

Q: Give the measured TGI for CCCCCCC1N=C(N)N=C(N)N1c1ccc(Cl)cc1 (stereo not given)
A: 17.4 µM

Q: Give the reported TGI for this compound. `O=c1cc(-c2ccccc2Cl)[nH]c2cc3c(cc12)OCO3`
A: > 37.5 µM

----------
Tested on: SF-268 CNS
Test: NCI tumour cell line growth inhibition, 48 h
# reported TGI; entries follow

A selection of reference data follows.
Compound	TGI
C[C@]12CC[C@H](O)CC1=CC[C@@H]1[C@@H]2CC[C@]2(C)C(=O)CC[C@@H]12	> 100 µM
FC(F)(F)C1(C(F)(F)F)C2CCC3(CC(F)(F)C(F)(F)S3)C1C2 (stereo not given)	> 100 µM
CN(C)CCOc1nc2ccccc2c2c1-c1ccc(Cl)cc1C2=O	2.32 µM
CC(C)[O-].CC(C)[O-].[O-]c1cccc2cccnc12.[O-]c1cccc2cccnc12.[Ti+4]	> 100 µM
COc1cc(/C=C/C(=O)c2ccc(Nc3nc(Nc4ccccc4)nc(Nc4ccc(Cl)cc4)n3)cc2)cc(OC)c1OC	> 32.5 µM
Cc1cc2nc3c4ccccc4n(CCN(C)C)c3nc2cc1C	5.86 µM
COC(=O)CCc1ccc2c(c1)CC1(C2)Cc2ccc3c(c2C1)CCC3 (stereo not given)	> 100 µM
O=C1/C(=C\c2c(-c3ccccc3)nn(-c3ccccc3)c2O)C(c2ccccc2)=NN1c1ccccc1	> 100 µM
CCCCCCC1N=C(N)N=C(N)N1c1ccc(Cl)cc1 (stereo not given)	21.7 µM

Please find the next compound below.
Q: Name the recorded TGI of the item O=C(CC1(O)C(=O)Nc2c(Cl)ccc(Cl)c21)c1ccc(C2CC2)cc1 (stereo not given) in your answer.
A: 23.4 µM

----------
Tested on: SW-620 colon
Assay: NCI tumour cell line growth inhibition, 48 h
The entries below come with measured TGI values attached.

Observe how each entry below is paired with its result.
Compound	TGI
CCOC(=O)CC(N1CC1)N1CC1	> 10 µM
NC(=O)CCC(NC(=O)C(F)(F)F)C(=O)O (stereo not drawn)	> 100 µM
CSc1ccc(C2=NN(C(=O)c3ccc(N)cc3)C(c3ccc(F)cc3)C2)cc1 (stereo not drawn)	26.3 µM
CNC(=O)OCCN1c2ccccc2Sc2ccccc21	> 100 µM
CCOC(=O)c1c(C(F)(F)F)oc2c1ccc1nc3nonc3nc12	35.3 µM
CCOc1cc(NC(C)=O)ccc1C(=O)NN1C(=O)CSC1c1ccc(O)c(OC)c1 (stereo not drawn)	> 100 µM
CC[C@@]1(OC(=O)CN)C(=O)OCc2c1cc1n(c2=O)Cc2cc3c(N)c4c(cc3nc2-1)OCO4	> 100 µM
CCOc1ccc(NC(=O)CCC(=O)NN)cc1	> 100 µM
O=C(CCO)OCCCCCC/C=C\CCCCCC/C=C\CCCCCCCCOC(=O)CCO	80.4 µM
CC(O)=NC(Cc1ccc2ccccc2c1)C(O)=NC(Cc1ccc(Cl)cc1)C(O)=NC(Cc1c[nH]c2ccccc12)C(O)=NC(CO)C(O)=NC(Cc1ccc(O)cc1)C(O)=NC(CCCN=C(N)N)C(O)=NC(CC(C)C)C(O)=NC(CCCN=C(N)N)C(=O)N1CCCC1C(O)=NC(C)C(=N)O (stereo not drawn)	> 100 µM

Q: Indicate its recorded TGI; the compound in question is CCN1C(=O)N(CC)C2C1NN=c1s/c(=C\c3ccccc3)c(=O)n12 (stereo not drawn)
A: > 100 µM

Q: Return the recorded TGI value; entry: `O=c1cc(-c2nc3ccccc3[nH]2)[nH]c2nc(-c3nc4ccccc4[nH]3)cc(-c3ccc(Cl)cc3)c12`
A: 54.1 µM

Q: Please report TGI for the following compound: `O=C(O)c1cc(N(Cc2ccccc2O)Cc2cc(O)ccc2O)ccc1O`
A: > 100 µM

Q: Identify measured TGI associated with `O=C(N/C(=C/c1ccc(Cl)cc1)c1nc2ccccc2c(=O)n1Nc1ccc([N+](=O)[O-])cc1[N+](=O)[O-])c1ccccc1`
A: > 100 µM

----------
System: COLO 205 colon
Assay: NCI tumour cell line growth inhibition, 48 h
Parameter TGI: see the listing below.

Q: Please indicate TGI recorded for OC1(c2ccc3ccccc3c2)c2ccc3ccccc3c2C2=NCCN21 (stereo unspecified)
A: > 100 µM

Q: Recall and state the measured TGI for O=C1CSC(/C=C/c2ccccc2)N1c1ccc(-n2c(-c3ccccc3)nc3ccccc3c2=O)cc1 (stereo unspecified) .
A: > 100 µM

Q: Kindly indicate its recorded TGI. Item: CCOC(=O)C1CC/C(=C(/C#N)C(=O)OC)N1 (stereo unspecified)
A: > 100 µM

Q: Please report the measured TGI for Cc1cc(C)c(NS(=O)c2cccc([N+](=O)[O-])c2)c(C)c1 (stereo unspecified)
A: > 100 µM

Q: Give me measured TGI, please, for this molecule: `Oc1ccc2ccccc2c1Cc1c(O)ccc2ccccc12`
A: 36.5 µM

Q: Entry `O=C(O)Cc1ccc2c(c1O)C(=O)c1c(ccc(CC(=O)O)c1O)C2=O` needs its TGI filled in; supply it.
A: > 100 µM

----------
Known TGI of a selection of compounds
Tested on: NCI-H522 lung
Assay: NCI tumour cell line growth inhibition, 48 h

Before answering, review these 2 worked examples.
Compound	Assayed Target	TGI
Nc1ccc(C(=O)NN2C(=O)C(Cl)C2c2cccc([N+](=O)[O-])c2)cc1 (stereo not drawn)	NCI-H522 lung	25.1 µM
Brc1ccc(Br)nn1	NCI-H522 lung	0.928 µM

The record that follows has no TGI shown yet.
Q: # return TGI for `COc1ccc(-n2c(=O)n(C)c(=O)n2-c2c(C)c(C)c(C)c(C)c2C)cc1` , test system: NCI-H522 lung
A: > 100 µM

----------
Listed below: TGI values for each entry.
System: KM12 colon
Experiment: NCI tumour cell line growth inhibition, 48 h

# count of solved cases: 3
Compound	Assayed Target	TGI
CCOc1cc(/C=N\NC(=O)N/N=C/c2ccc(O)c(OCC)c2)ccc1O	KM12 colon	> 100 µM
Cc1cc(=O)[nH]c2c3c(ccc12)OC(C)(C)C=C3	KM12 colon	> 100 µM
COP(=O)(C(/C=C/c1ccccc1)OC(C)=O)[C@@H]1CCCC[C@H]1N(CC(C)(C)C)C(C)=O (some centres undefined)	KM12 colon	> 100 µM

Q: Give TGI for this entry on KM12 colon: CC1=NN(c2ccccc2)C(=O)C1N=Nc1ccc(Br)c(C)c1 (centres undefined)
A: > 100 µM

Q: Param request: TGI | system KM12 colon | item FC(F)(F)C1(C(F)(F)F)C2CCC3(CC(F)(F)C(F)(F)S3)C1C2 (centres undefined)
A: > 100 µM

----------
Listing of entries alongside the reported TGI.
Test system: SF-268 CNS
Assay: NCI tumour cell line growth inhibition, 48 h
Where a SMILES comes first, the peptide text is derived from it. The star is where a group is joined. Boc = CC(C)(C)OC(=O)*
Give just the numeric value; µM need not be written.

Molecule	Reported Endpoint	Reported Measurement
CCc1ccccc1-n1c(N)c(C#N)c(-c2ccc(OC)c(OC)c2)c(C#N)c1=O	TGI	31.6

Attention now turns to another entry.
Q: Answer with the recorded TGI of CCOC(=O)C(CC(C)C)NC(=O)C(Cc1ccccc1)NC(=O)CNC(=O)OC(C)(C)C (stereo not drawn) (Boc-Gly-Phe-Leu-OEt; configuration not given here) only.
A: 43.3

----------
System: HCC-2998 colon
Assay: NCI tumour cell line growth inhibition, 48 h; in the data active = GI50 below about 0.43 µM; inactive = the rest
Outcome (select one): 1 (yes) for active, 0 (no) for inactive

Q: Assay outcome for `CNCCOc1nc2c3cnccc3cc(-c3cc(OC)c(OC)c(OC)c3)c2c2ccncc12` : what was it?
A: 1 (yes)

Q: Assay result, entry `COc1cccc(Nc2nccc(Nc3ccc4[nH]ncc4c3)n2)c1` — outcome?
A: 0 (no)

Q: What outcome does the record of this test show for `CC(=O)/C=C/C1=C(c2ccsc2)c2ccccc2CC1` ?
A: 0 (no)

Q: Please share the test call associated with `N#CC(C#N)=Cc1ccc(-c2ccc(-c3nc4ccccc4o3)cc2)o1` .
A: 0 (no)

Q: Look up the recorded call for `Oc1[nH]c2ccc(Cl)cc2c1/C=c1/ccc2c(c1)N=C(c1cc(F)cc(F)c1)N=2` in this test.
A: 0 (no)

Q: Assay result, entry `COC(=O)Nc1nc2ccc(Sc3ccccc3)cc2[nH]1` — outcome?
A: 1 (yes)

Q: Could you check what this test reported for `N#Cc1c(Oc2ccc(F)c(NC(=O)Cc3cccc(C(F)(F)F)c3)c2)ccc2nc(NC(=O)C3CC3)sc12` ?
A: 0 (no)
